Tested on: SNB-75 CNS
assayName: NCI tumour cell line growth inhibition, 48 h
Class met: TGI at least 10 µM. Class not met: TGI below 10 µM.

A selection of reference data follows.
compound	category
N#CSc1ncnc2nc[nH]c12	met
COc1ccccc1[N-]C(C1=C([O-])c2ccccc2C1=O)c1ccccc1.COc1ccccc1[N-]C(C1=C([O-])c2ccccc2C1=O)c1ccccc1.[Cu+2] (stereo not given)	met
Cc1c(C#N)c2nnn(C)c(=O)n2c1-c1ccccc1	met

Enquiry: Threshold query (TGI >= 10 µM) on O=C(O)[C@@H]1C2CC([C@@H]1C(=O)O)[C@H](N1C(=O)CCC1=O)[C@@H]2Br (stereo not given in full)
Return: met

Enquiry: Threshold query (TGI >= 10 µM) on O=C1CC(=O)NC(=NN2C(=O)CSC2c2ccc(Cl)c(Cl)c2)N1 (stereo not given)
Return: met

---

Record form. Attribute: TGI. Fill in for each entry.
System: NCI-H23 lung
assayName: NCI tumour cell line growth inhibition, 48 h

>>> print(df.to_string())
                                   compound  attributemeasured  measurement
0  CC1(Sc2ccccc2)CN(Cc2ccccc2)C1=O (configuration not stated)                TGI     > 100 µM
1  c1ccc2nc(Cn3c[n+](Cc4ccc5ccccc5n4)c4ccccc43)ccc2c1                TGI      10.3 µM
2  c1ccc2[nH]c(-c3ccc(N4CCN(c5ccc(-c6nc7ccccc7[nH]6)cc5)CC4)cc3)nc2c1                TGI     > 100 µM
3  CCn1c(-c2nonc2N)nc2cncc(C(=O)N3CCNCC3)c21                TGI      > 25 µM

Batch request: TGI for each of the following compounds.
1. NCCCCNCCCN1CC1
2. COC12C=CC(CC1)c1c(O)ccc(O)c12 (configuration not stated)
3. CCOC(=O)/C(O)=C(/C=N\C(=S)Nc1ccccc1Cl)C(=O)OCC
4. COc1cccc(C2=C(c3cn(C)c4ccccc34)C(=O)NC2=O)c1
5. Clc1cccc(Cl)c1C=NC12CC3CC(CC(C3)C1)C2
6. O=S(=O)([O-])[O-].[Fe+2].c1ccc(/C(=N\Nc2ccccn2)c2ccccn2)cc1
7. COc1cc(NC(C)=O)c2[nH]c3c(C)cc(NC(C)=O)c(C)c3c2c1

Return:
16.2 µM
> 100 µM
> 100 µM
> 25 µM
> 10 µM
8.68 µM
> 100 µM

Batch request: TGI for each of the following compounds.
1. Fc1ccc(-c2nc3n(c2-c2ccncc2)CCS3)cc1
2. CC1Oc2cc3c(-c4c(O)cc(O)c5c(O)c6c(cc45)OC(C)C(C)C6=O)c(O)cc(O)c3c(O)c2C(=O)C1C (configuration not stated)

Return:
["> 25 µM", "0.756 µM"]

---

Tested on: 786-0 renal
assayName: NCI tumour cell line growth inhibition, 48 h; in the data active = GI50 below about 0.43 µM; inactive = the rest
The categories you may choose from are 1 (active), 0 (inactive)

A selection of reference data follows.
compound	category
N#CSc1ncnc2nc[nH]c12	0
N=C(N)c1nn(C2OC(CO)C(O)C2O)c2nc[nH]c(=O)c12 (centres undefined)	0
COc1ccccc1[N-]C(C1=C([O-])c2ccccc2C1=O)c1ccccc1.COc1ccccc1[N-]C(C1=C([O-])c2ccccc2C1=O)c1ccccc1.[Cu+2] (centres undefined)	0

Enquiry: Check the results log: what was the call for CCc1ccc(NC(=O)Nc2c[nH]c3ccccc23)cc1 ?
Return: 0

Enquiry: Check the results log: what was the call for COc1ccc(C(=O)/C=C/c2ccc(Cl)cc2)cc1S(=O)(=O)Nc1c(N)nc(SC)[nH]c1=O ?
Return: 0

Enquiry: Check the results log: what was the call for CCCN(Cc1ccc(F)cc1)c1ccc(CO)c(Cl)c1 ?
Return: 0

Enquiry: Check the results log: what was the call for COc1ccc2c(c1)CCC1C2CCC2(C)C1CCC2(O)CNC(=O)CCCCC1CCSS1 (centres undefined) ?
Return: 0

Enquiry: Check the results log: what was the call for Nc1nc(/C=C\c2ccc([N+](=O)[O-])o2)nc(N2CCN(c3ccccc3)CC2)n1 ?
Return: 0

Enquiry: Check the results log: what was the call for CCC[CH2][Sn]([CH2]CCC)([O]C(C)=O)[O]C(C)=O ?
Return: 0

Enquiry: Check the results log: what was the call for CCn1c(-c2nonc2N)nc2cncc(C(=O)N3CCNCC3)c21 ?
Return: 0

Enquiry: Check the results log: what was the call for CCN(CC)CCOc1ccc(C(=C(C)c2ccc(Cl)cc2)c2ccc(OCCN(CC)CC)cc2)cc1 ?
Return: 0

Enquiry: Check the results log: what was the call for Cc1ccc2[nH]c(C(=O)NN3C(=O)CSC34CCCCC4C)c(-c3ccccc3)c2c1 (centres undefined) ?
Return: 0

---

Record form. Attribute: TGI. Fill in for each entry.
Test system: EKVX NSCLC
assayName: NCI tumour cell line growth inhibition, 48 h
Give bare numbers, in µM.

>>> df
                            smilesstructure  attributemeasured  measurement
0  CCN=C1C=CC(=C(c2ccc(N(C)C)cc2)c2ccc(N(C)C)cc2)c2ccccc21                TGI        0.488

Enquiry: Give its TGI value. Item: CCOC(=O)c1c2c(n(CC(C)C)c1C)-c1nc[nH]c1C(=O)C2=O
Return: 28.2

---

Tested on: MALME-3M melanoma
assayName: NCI tumour cell line growth inhibition, 48 h
attributeMeasured: TGI (µM)
Answers are plain numbers, in µM.

>>> print(df.to_string())
                                   compound  measurement
0  CC(C)OP(=O)(OC(C)C)C(C(C)C)N(C)/C(N)=N\C1=NC(C(F)(F)F)(C(F)(F)F)N=C(C(C(F)(F)F)C(F)(F)F)O1 (stereo not given)         22.7

// switching to the query compound
Enquiry: Find TGI (MALME-3M melanoma) for the entry N#CC1(C#N)C2CCCCC23OC(=N)C1(C#N)C(c1ccco1)O3 (stereo not given)
Return: 48.3

---

Test system: KM12 colon
assayName: NCI tumour cell line growth inhibition, 48 h; in the data active = GI50 below about 0.43 µM; inactive = the rest
The categories you may choose from are active, inactive

A selection of reference data follows.
molecule	category
CCOC(=O)Cc1c[nH]c(=S)[nH]c1=O	inactive
CCc1ccc(NC(=O)Nc2c[nH]c3ccccc23)cc1	inactive
CC1(C)CCC2(C(=O)OC3OC(CO)C(O)C(O)C3O)CC[C@]3(C)C(=CCC4C5(C)CC[C@H](OC6OC(C(=O)O)C(O)C(O)C6O)C(C)(C)C5CCC43C)C2C1 (some centres undefined)	inactive
CC1=C(C(=O)OCc2ccccc2)C(c2ccc3c(c2)OCO3)n2c(nc3ccccc32)N1 (centres undefined)	active
CC[C@](C)(O)C(=O)O[C@H]1C(=O)O[C@@H]2C[C@H]3C(C)=CC(=O)[C@@H](O)[C@]3(C)[C@H]3[C@@]4(O)OC[C@]32[C@@H]1[C@@H](C)[C@H]4O	active

Enquiry: Check the results log: what was the call for COc1cc2c(cc1OC)-c1ccc3cc4c(cc3c1N(CCN1CCCC1)C2)OCO4 ?
Return: inactive

Enquiry: Check the results log: what was the call for C=C1C(=O)O[C@@H]2C1CC(=O)C(C)CC/C=C(\C)CCC[C@H](C)[C@H]2OC(C)=O (some centres undefined) ?
Return: inactive

Enquiry: Check the results log: what was the call for c1ccc2[nH]c(-c3ccc(N4CCN(c5ccc(-c6nc7ccccc7[nH]6)cc5)CC4)cc3)nc2c1 ?
Return: inactive

Enquiry: Check the results log: what was the call for CCCN(Cc1ccc(F)cc1)c1ccc(CO)c(Cl)c1 ?
Return: inactive

---

System: HOP-62 NSCLC
assayName: NCI tumour cell line growth inhibition, 48 h
*1 amine or outer side, *2 acyl side, *3 side chain or, on linkers, in order; H or OH if unused. Where a SMILES comes first, the peptide text is derived from it. Bridges are numbered along the chain shown (N, C = ends). [ ]: non-standard residue; d: D form. The star is where a group is joined. X38 = CC[C@H](C)[C@@H](N[*:1])[C@@H](O)CC(=O)[*:2]; NMeY = CN[C@@H](Cc1ccc(O)cc1)C(=O)O; dNMeL = CN[C@H](CC(C)C)C(=O)O; Hiv = CC(C)[C@H](O)C(=O)O; Pyruvoyl = CC(=O)C(=O)*
Record form. Attribute: TGI. Fill in for each entry.

Example entries begin here.
compound	measurement
O=C(O)CS(=O)(=O)C(c1ccccc1)c1ccccc1	> 100 µM
Cn1c(O)c(C(=O)Nc2cccs2)c(=O)[nH]c1=S	40.6 µM
COc1ccc(OC)c2sc(N3C(=O)/C(=C/Cc4ccco4)N=C3c3ccccc3)nc12	> 100 µM

Batch request: TGI for each of the following compounds.
1. O=C1CC(=O)NC(=NN2C(=O)CSC2c2ccc(Cl)c(Cl)c2)N1 (centres undefined)
2. CCCCCC(=O)Nc1n[nH]nc1C(N)=O

Return:
1: > 100 µM; 2: > 100 µM

Batch request: TGI for each of the following compounds.
1. CN(C)c1ccc(-c2c(C#N)c(N)[nH]c(=S)c2C#N)cc1
2. C[C@]12CC[C@H]3[C@@H](CCC4=CC(=O)CC[C@@H]43)[C@@H]1CC[C@@H]2OC(=O)N(CCCl)N=O
3. COc1ccc(C2c3cc4c(cc3C(O)C3CCC(=O)N23)OCO4)cc1 (centres undefined)
4. COC(=O)CCC(=O)N1Cc2cc(C)ccc2N(C(=O)CCC(=O)OC)Cc2cc(C)ccc21
5. CSc1nnc(CCSc2ccnc3c(C(F)(F)F)cccc23)o1
6. OCC1OC(n2ccc3c2ncn2ncnc32)C(O)C1O (centres undefined)
7. O=S(=O)(c1ccc(NC(=S)NCc2cccnc2)cc1)N1CCCCC1
8. CC[C@H](C)[C@H]1NC(=O)[C@@H](NC(=O)[C@@H](CC(C)C)N(C)C(=O)[C@@H]2CCCN2C(=O)C(C)=O)[C@@H](C)OC(=O)[C@H](Cc2ccc(OC)cc2)N(C)C(=O)[C@@H]2CCCN2C(=O)[C@H](CC(C)C)NC(=O)[C@H](C(C)C)OC(=O)C[C@@H]1O (Pyruvoyl-P[dNMeL]T[X38][Hiv]LP[NMeY](Me); ester 3-C)

Return:
["> 100 µM", "26.1 µM", "> 100 µM", "> 100 µM", "> 100 µM", "33.1 µM", "> 100 µM", "0.0728 µM"]

Batch request: TGI for each of the following compounds.
1. O=C(O)CSSCC(=O)O
2. NC(=O)[C@H]1CCN(c2ncnc(N)c2F)C[C@@H]1N1CCC[C@@H](Nc2cc(Cl)cc(C(F)(F)F)c2)C1=O
3. CC1=C(C(=O)OCc2ccccc2)C(c2ccc3c(c2)OCO3)n2c(nc3ccccc32)N1 (centres undefined)
4. CC1(C)C(=O)N(O)C(C)(C)N1O

Return:
1: > 100 µM; 2: > 100 µM; 3: > 100 µM; 4: > 10 µM

Batch request: TGI for each of the following compounds.
1. CCN1C(=O)N(CC)C2C1NN=c1s/c(=C3\C(=O)N(C(C)C)c4ccccc43)c(=O)n12 (centres undefined)
2. O=c1cc(CNc2cc(F)cc(F)c2)c2ccc(I)cc2[nH]1

Return:
1: 42.7 µM; 2: > 100 µM

// data source = PubChem BioAssay (NCI)
